# protocol_text: qHTS assay to identify small molecule agonists of the estrogen receptor beta (ER-beta) signaling pathway - cell viability counter screen (AID 1259380); also: nearly all actives have a fitted effect of over 30% in size
# condition: ER-beta-bla HEK293T viability, CellTiter-Glo luminescence, 16 h; series mostly up to 92.4 µM
# Source text: National Center for Advancing Translational Sciences [NCATS] NIH Chemical Genomics Center [NCGC] U.S. Environmental Protection Agency [EPA] National Institutes of Environmental Health Sciences [NIEHS] National Toxicology Program [NTP] U.S. Food and Drug Administration [FDA] Estrogen receptor (ER), a nuclear hormone receptor, plays an important role in development, metabolic homeostasis and reproduction. […]
Results filed as inconclusive are left out. Calls of active or inactive are those of the source. Calls follow the shape of the dose curve; as a rule, active = well fitted cell-killing curve with a large enough effect in the repeat runs; inconclusive = weak or mixed curves, or effect the other way; inactive = flat fitted curve, though single readings scatter.
Thanks in advance; please answer with one of these: active, inactive

| compound | label_value |
| --- | --- |
| O=Cc1ccc(F)cc1 | inactive |

What did this assay record as the result for CC(NCCC(c1ccccc1)c1ccccc1)c1ccccc1 (stereo not given) ?
active

What did this assay record as the result for CC(COC(=O)c1ccccc1)OC(=O)c1ccccc1 (stereo not given) ?
inactive

What did this assay record as the result for CCCC(C)CCC(C)=O (stereo not given) ?
inactive

What did this assay record as the result for Clc1cccnc1 ?
inactive

What did this assay record as the result for CC(=O)O[C@@H]1C[C@@H]2CC[C@@]1(C)C2(C)C ?
inactive
